Attribute: β-tryptase kapp
MEASURED_TARGET: β-tryptase (Homo sapiens, UniProt P20231)
Sequence (P20231 31-275): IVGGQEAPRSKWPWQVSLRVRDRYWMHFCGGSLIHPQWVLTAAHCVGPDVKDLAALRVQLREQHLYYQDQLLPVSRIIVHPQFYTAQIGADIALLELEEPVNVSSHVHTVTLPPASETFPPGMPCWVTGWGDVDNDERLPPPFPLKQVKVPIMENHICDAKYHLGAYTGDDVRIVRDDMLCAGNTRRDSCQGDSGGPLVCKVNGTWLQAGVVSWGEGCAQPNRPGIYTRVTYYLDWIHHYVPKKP
MEASUREMENT_NOTES: Kinetic progress curves (kapp, K1, KI*, mechanism)
Format: biochemical
Design: purchased EnzoLife Sciences
RUN_PARAMETERS: apparent second-order rate constant from progress curves; mean ± SD
QUANTITY_MEASURED: β-tryptase kapp (M⁻¹ s⁻¹)

{"MOLECULE": "C[C@@H]1NC(=O)N[C@@H]1CCCCCC(=O)NCCOCCOCCOCCn1cc(CCCOC(=O)NC(c2ccc(NC(=N)N)cc2)P(=O)(Oc2ccccc2)Oc2ccccc2)nn1 (stereo partly drawn) [55b]", "QUANTITY_MEASURED": "β-tryptase kapp", "NUMERIC_VALUE": 347}
{"MOLECULE": "C#CCCCOC(=O)NC(C1CCN(C(=N)N)CC1)P(=O)(Oc1ccccc1)Oc1ccccc1 (stereo not drawn) [41b]", "QUANTITY_MEASURED": "β-tryptase kapp", "NUMERIC_VALUE": 27}
{"MOLECULE": "CC(=O)Nc1ccc(OP(=O)(Oc2ccc(NC(C)=O)cc2)C(NC(=O)OCCCc2cn(CCOCCOCCOCCNC(=O)CCCCC[C@H]3NC(=O)N[C@H]3C)nn2)c2ccc(NC(=N)N)cc2)cc1 (stereo partly drawn) [56b]", "QUANTITY_MEASURED": "β-tryptase kapp", "NUMERIC_VALUE": 321}
{"MOLECULE": "C[C@@H]1NC(=O)N[C@@H]1CCCCCC(=O)NCCOCCOCCOCCn1cc(CCCOC(=O)NC(CCCNC(=N)N)P(=O)(Oc2ccccc2)Oc2ccccc2)nn1 (stereo partly drawn) [45b]", "QUANTITY_MEASURED": "β-tryptase kapp", "NUMERIC_VALUE": 237}
{"MOLECULE": "C#CCCCOC(=O)NC(c1ccc(NC(=N)N)cc1)P(=O)(Oc1ccccc1)Oc1ccccc1.O=C(O)C(F)(F)F (stereo not drawn) [37b]", "QUANTITY_MEASURED": "β-tryptase kapp", "NUMERIC_VALUE": 375}
{"MOLECULE": "C#CCCCOC(=O)NC(Cc1ccc(NC(=N)N)cc1)P(=O)(Oc1ccccc1)Oc1ccccc1 (stereo not drawn) [34b]", "QUANTITY_MEASURED": "β-tryptase kapp", "NUMERIC_VALUE": 712}
{"MOLECULE": "C#CCCCOC(=O)NC(CCCNC(=N)N)P(=O)(Oc1ccccc1)Oc1ccccc1 (stereo not drawn) [32b]", "QUANTITY_MEASURED": "β-tryptase kapp", "NUMERIC_VALUE": 41}

----------
Recorded pIC50 by entry
MEASURED_TARGET: Cathepsin G (cathepsin G human neutrophil) (Homo sapiens, UniProt P08311)
Construct: Cathepsin G (cathepsin G human neutrophil, Sigma-Aldrich); purchased Sigma-Aldrich; host or cells: human neutrophil
Sequence (P08311 21-255): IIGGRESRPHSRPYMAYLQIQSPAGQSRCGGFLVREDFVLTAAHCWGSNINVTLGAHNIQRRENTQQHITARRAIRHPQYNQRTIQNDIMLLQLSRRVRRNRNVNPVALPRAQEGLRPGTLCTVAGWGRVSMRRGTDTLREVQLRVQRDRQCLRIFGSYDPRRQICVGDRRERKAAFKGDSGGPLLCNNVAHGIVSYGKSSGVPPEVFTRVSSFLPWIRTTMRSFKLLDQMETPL
MEASUREMENT_NOTES: IC50 determination, spectrophotometric protease assay
Format: biochemical
pIC50: −log10 of the molar value.
QUANTITY_MEASURED: pIC50

{"MOLECULE": "C#CCCCOC(=O)NC(C(C)C)P(=O)(Oc1ccccc1)Oc1ccccc1 (stereo not shown)", "MEASURED_TARGET": "Cathepsin G (cathepsin G human neutrophil) (Homo sapiens, UniProt P08311)", "QUANTITY_MEASURED": "pIC50", "BOUND_SIGN": "<", "NUMERIC_VALUE": 5.00}
{"MOLECULE": "CC(=O)Nc1ccc(OP(=O)(Oc2ccc(NC(C)=O)cc2)C(Cc2ccc(NC(=N)N)cc2)NC(=O)OCCCc2cn(CCOCCOCCOCCNC(=O)CCCCC[C@H]3NC(=O)N[C@H]3C)nn2)cc1 (stereo partly shown) [52b]", "MEASURED_TARGET": "Cathepsin G (cathepsin G human neutrophil) (Homo sapiens, UniProt P08311)", "QUANTITY_MEASURED": "pIC50", "BOUND_SIGN": "=", "NUMERIC_VALUE": 7.30}
{"MOLECULE": "C#CCCCOC(=O)NC(CCCNC(=N)N)P(=O)(Oc1ccccc1)Oc1ccccc1 (stereo not shown) [32b]", "MEASURED_TARGET": "Cathepsin G (cathepsin G human neutrophil) (Homo sapiens, UniProt P08311)", "QUANTITY_MEASURED": "pIC50", "BOUND_SIGN": "=", "NUMERIC_VALUE": 5.12}
{"MOLECULE": "C#CCCCOC(=O)NC(Cc1ccc(N)cc1)P(=O)(Oc1ccc(Cl)cc1)Oc1ccc(Cl)cc1 (stereo not shown) [18b]", "MEASURED_TARGET": "Cathepsin G (cathepsin G human neutrophil) (Homo sapiens, UniProt P08311)", "QUANTITY_MEASURED": "pIC50", "BOUND_SIGN": "=", "NUMERIC_VALUE": 6.44}
